The values you see were collected from patent US20220177542A1.

Consider the following sequences; for each one, report its % pept exch.
target: HLA-DRB1*04:01 monomer (Homo sapiens, UniProt P01903+P01911, A100K/A169T/F76Y/I96L/K127E/L162R/M171V/N62H/P40V/Q125Y/R42H/S133A/S149N/S66Y/V115G/V209L/W38E); construct: the extracellular domain of the MHC class II α chain and β chain to which leucine zipper motifs are added; leucine zipper motif; type: binding
Kindly write the number and append the unit.

[[record]]
sequence_input = "FHTYTIDWTKDAVTVV"
endpoint_result = "48.81%"

[[record]]
sequence_input = "FNNFIVSFWLRVPKVSASHLE"
endpoint_result = "6.827%"

[[record]]
sequence_input = "PVSKMRMATPLLMQA [reference compound]"
endpoint_result = "92.22%"


// next entry
For record `AKFVAAWTLKAAA` the listed % pept exch is 83.27%
